- Measurement Notes: self-splicing fitness, log relative to wild type (ln ratio); higher = more splicing; Tetrahymena group I intron in knt gene, E. coli kanamycin selection, DiMSum; sequences stand for … in CUCUCU…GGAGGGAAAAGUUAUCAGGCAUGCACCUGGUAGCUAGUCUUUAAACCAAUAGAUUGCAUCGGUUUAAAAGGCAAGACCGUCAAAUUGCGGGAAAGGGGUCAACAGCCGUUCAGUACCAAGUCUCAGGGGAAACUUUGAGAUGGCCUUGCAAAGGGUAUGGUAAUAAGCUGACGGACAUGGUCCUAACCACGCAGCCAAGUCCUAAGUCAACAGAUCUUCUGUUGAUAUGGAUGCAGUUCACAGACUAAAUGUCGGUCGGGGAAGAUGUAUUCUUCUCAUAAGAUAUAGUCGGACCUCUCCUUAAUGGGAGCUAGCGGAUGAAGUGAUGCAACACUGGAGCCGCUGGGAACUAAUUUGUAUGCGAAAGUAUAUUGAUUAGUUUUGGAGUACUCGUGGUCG;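 also: selection with 25 µg/mL kanamycin versus none on LB agar overnight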
- Condition: 30 °C
Experimental Endpoint: self-splicing fitness (ln)

Would you please look over these solved cases?
1. CGUGAGCAAUAUUACGGGCG | -2.93
2. CGGUAGCAAUAUUACGGCUG | -4.13
3. CCCUAGCAAUAUUACGCAAU | -3.56
4. GCACAGCAAUAUUACGAUAC | -1.21
5. GUACAGCAAUAUUACGAUGG | -3.3

Sample CCAAAGCAAUAUUACGAACG ; self-splicing fitness (ln) observed: 0.08

Sample CGAAAGCAAUAUUACGCCAG ; self-splicing fitness (ln) observed: -0.884

Sample GCGCAGCAAUAUUACGGUUC ; self-splicing fitness (ln) observed: -0.737

Sample GUUAAGCAAUAUUACGCCAU ; self-splicing fitness (ln) observed: -2.03
